Measured protein stability index, listed per entry.
B1: SERPINB5 (parent)
chain: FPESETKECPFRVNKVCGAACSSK

Variants of: B1
ASSAY_TEXT: protein stability index of a GFP-peptide fusion (GPS, HEK-293T) (PSI 1-6); higher = more stable;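 further: lentivirally expressed fusions sorted by FACS into six bins by GFP to DsRed ratio, PSI derived from sequencing read proportions per bin multiplied by bin number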
MEASUREMENT_CONDITIONS: c terminus: a fixed tail appended
TEST_READOUT: protein stability index

{"columns": ["MUTATION_STRING", "READOUT_NUMBER"],
 "data": [
  ["S4E", 4.53],
  ["V13R", 3.59],
  ["V13M", 3.1],
  ["E8Y", 1.93],
  ["A20E", 2.84],
  ["C17M", 2.49],
  ["E5T", 2.11],
  ["V13F", 2.59],
  ["S4R", 2.76],
  ["K15H", 4.17],
  ["N14A", 2.2],
  ["C21H", 2.44],
  ["C21T", 2.62],
  ["C9L", 3.6],
  ["V16C", 2.24],
  ["F11L", 4.31],
  ["T6E", 3.47],
  ["R12K", 3.57],
  ["P2I", 2.07],
  ["K24P", 2.21],
  ["F1K", 4.89],
  ["G18R", 2.43]
]}
